# TARGET_SYSTEM: Serine/threonine-protein kinase Nek1 (Homo sapiens, UniProt Q96PY6); further: in the data inactive means no Kd found up to 30 µM
# Sequence (Q96PY6 whole entry): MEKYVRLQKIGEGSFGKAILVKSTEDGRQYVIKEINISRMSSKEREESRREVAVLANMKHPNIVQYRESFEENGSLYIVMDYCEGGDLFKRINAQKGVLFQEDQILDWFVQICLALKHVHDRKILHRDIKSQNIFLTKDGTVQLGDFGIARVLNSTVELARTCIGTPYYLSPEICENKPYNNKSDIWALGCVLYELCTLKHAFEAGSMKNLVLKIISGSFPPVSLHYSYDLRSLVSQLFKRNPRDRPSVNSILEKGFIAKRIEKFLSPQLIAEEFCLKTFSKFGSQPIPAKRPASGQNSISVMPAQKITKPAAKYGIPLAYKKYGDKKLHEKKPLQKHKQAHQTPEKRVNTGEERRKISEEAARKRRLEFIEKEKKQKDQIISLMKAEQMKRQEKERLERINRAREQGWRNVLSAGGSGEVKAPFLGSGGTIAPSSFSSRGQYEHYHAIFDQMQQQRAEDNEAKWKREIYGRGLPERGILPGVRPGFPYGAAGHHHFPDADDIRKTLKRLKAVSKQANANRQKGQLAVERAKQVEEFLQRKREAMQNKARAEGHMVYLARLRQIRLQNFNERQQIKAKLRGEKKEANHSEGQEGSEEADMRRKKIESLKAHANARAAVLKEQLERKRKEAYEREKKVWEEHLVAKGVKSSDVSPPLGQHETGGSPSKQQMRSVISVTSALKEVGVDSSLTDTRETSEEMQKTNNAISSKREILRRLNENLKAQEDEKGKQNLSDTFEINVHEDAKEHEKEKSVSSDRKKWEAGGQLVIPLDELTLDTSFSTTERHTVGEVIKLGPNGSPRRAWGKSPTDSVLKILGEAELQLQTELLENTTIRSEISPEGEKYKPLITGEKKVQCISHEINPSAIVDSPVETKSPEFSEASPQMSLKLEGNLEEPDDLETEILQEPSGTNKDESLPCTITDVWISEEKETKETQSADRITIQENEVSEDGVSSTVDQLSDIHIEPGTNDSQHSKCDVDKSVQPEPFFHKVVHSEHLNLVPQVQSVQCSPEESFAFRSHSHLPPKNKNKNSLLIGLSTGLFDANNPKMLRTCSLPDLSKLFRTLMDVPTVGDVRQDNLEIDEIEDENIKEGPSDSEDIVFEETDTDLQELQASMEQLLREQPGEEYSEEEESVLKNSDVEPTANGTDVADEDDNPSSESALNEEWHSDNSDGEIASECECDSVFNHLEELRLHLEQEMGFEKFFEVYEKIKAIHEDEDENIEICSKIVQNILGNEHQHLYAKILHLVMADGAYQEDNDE
Active and inactive are the calls of the source.
Below, each entry is listed with its recorded Kd.

Below: 3 compounds and their reported Kd.
structure=Cc1nc2cc(-n3ncc(C(=O)c4cc5ccccc5[nH]4)c3N)ccc2[nH]1 target_system="Serine/threonine-protein kinase Nek1 (Homo sapiens, UniProt Q96PY6)" result="> 30 µM (inactive)"
structure=O=C(Cc1ccc(-c2ccc(OCCN3CCOCC3)cc2)cn1)NCc1ccccc1 target_system="Serine/threonine-protein kinase Nek1 (Homo sapiens, UniProt Q96PY6)" result="> 30 µM (inactive)"
structure=Cc1cc(Nc2ncnc3ccc(NC4=NC(C)(C)CO4)cc23)ccc1Oc1ccn2ncnc2c1 target_system="Serine/threonine-protein kinase Nek1 (Homo sapiens, UniProt Q96PY6)" result="> 30 µM (inactive)"

Consider the additional compound presented here.
**Query** Recorded Kd of C=CC(=O)N1CCC[C@H](n2c(=O)n(-c3ccc(Oc4ccccc4)cc3)c3c(N)ncnc32)C1 , please.
**Result** > 30 µM (inactive)
